Recorded values, source paper PMC8305101.

# runDescription: Cytotoxicity in Hs27 normal skin fibroblasts (CellTiter-Glo ATP viability)
# Format: cell-based
# experimentalParameters: human, 48-h incubation, mean (SD) of 2–3 independent experiments in triplicate, read-out: CC50 (µM) in Hs27 Cells
CC50 at 48 h under 2 µM gets 1, anything at or over 2 µM gets -1.

Q: Say whether its CC50 at 48 h is strictly beneath 2 µM. Entry: "O=C1C=CC2(C=C1)CC(C(=O)Nc1cccnc1)=NO2"
A: 1

Q: Say whether its CC50 at 48 h is strictly beneath 2 µM. Entry: "Cn1nc(-c2ccc(Cl)cc2)cc1NC(=O)C1=NOC2(C=CC(=O)C=C2)C1"
A: 1

----------
# runDescription: Cytotoxicity in Hs27 normal skin fibroblasts (CellTiter-Glo ATP viability)
# Format: cell-based
# experimentalParameters: human, 48-h incubation, mean (SD) of 2–3 independent experiments in triplicate, read-out: CC50 (µM) in Hs27 Cells
# Protocol: Analysis of selectivity to cancer cells. […] After a 48-h incubation, the amount of ATP, which is directly proportional to the number of viable cells present in culture, was quantified using CellTiter-Glo® Luminescent Cell Viability kit (Promega, Madison, WI, USA), according to manufacturer’s instructions. […] The cancer cell selectivity index was calculated as a ratio of CC50 values between Hs27 fibroblasts and A-375 melanoma cells. […]
observedProperty: CC50 at 48 h
Please answer using the number first and the unit second.

{"columns": ["molecule", "observedProperty", "reading"],
 "data": [
  ["O=C1C=CC2(C=C1)CC(C(=O)Nc1cc(Cl)cc(Cl)c1)=NO2 [Compound 18]", "CC50 at 48 h", "0.8 µM"],
  ["O=C(Nc1cccnc1)C1=NOC2(C=C(Br)C(=O)C(Br)=C2)C1 [Compound 27]", "CC50 at 48 h", "6.6 µM"],
  ["O=C(Nc1cc(Cl)cc(Cl)c1)C1=NOC2(C=C(Br)C(=O)C(Br)=C2)C1 [Compound 19]", "CC50 at 48 h", "6.8 µM"],
  ["COc1ccc(NC(=O)C2=NOC3(C=CC(=O)C=C3)C2)cc1Cl [Compound 20]", "CC50 at 48 h", "1.5 µM"]
]}

Q: Tell me the measured CC50 at 48 h of COc1ccc(CNC(=O)C2=NOC3(C=CC(=O)C=C3)C2)cc1 [Compound 23] , please.
A: 1.4 µM

Q: Tell me the measured CC50 at 48 h of O=C1C=CC2(C=C1)CC(C(=O)N1CCC(O)CC1)=NO2 [Compound 16] , please.
A: 7.4 µM

Q: Tell me the measured CC50 at 48 h of O=C(Nc1ccc(C(F)(F)F)nc1)C1=NOC2(C=C(Br)C(=O)C(Br)=C2)C1 [Compound 31] , please.
A: 2.1 µM

Q: Tell me the measured CC50 at 48 h of O=C1C=CC2(C=C1)CC(C(=O)Nc1ccccn1)=NO2 [Compound 28] , please.
A: 1.5 µM

Q: Tell me the measured CC50 at 48 h of COc1ccc(NC(=O)C2=NOC3(C=C(Br)C(=O)C(Br)=C3)C2)cc1Cl [Compound 21] , please.
A: 5 µM

Q: Tell me the measured CC50 at 48 h of O=C1C=CC2(C=C1)CC(C(=O)NCc1cccnc1)=NO2 [Compound 35] , please.
A: 2.5 µM

Q: Tell me the measured CC50 at 48 h of O=C1C=CC2(C=C1)CC(C(=O)NNC(=O)c1ccccn1)=NO2 [Compound 37] , please.
A: 6 µM

Q: Tell me the measured CC50 at 48 h of O=C(Nc1ccccn1)C1=NOC2(C=C(Br)C(=O)C(Br)=C2)C1 [Compound 29] , please.
A: 5.8 µM

Q: Tell me the measured CC50 at 48 h of COc1ccc(CNC(=O)C2=NOC3(C=C(Br)C(=O)C(Br)=C3)C2)cc1 [Compound 24] , please.
A: 3.3 µM

Q: Tell me the measured CC50 at 48 h of O=C(Nc1nc2c(s1)CCCC2)C1=NOC2(C=C(Br)C(=O)C(Br)=C2)C1 [Compound 42] , please.
A: 4.4 µM

----------
Catalogue of CC50 at 48 h readings, one per entry.
# runDescription: Cytotoxicity in Hs27 normal skin fibroblasts (CellTiter-Glo ATP viability)
# Type: cell-based
# experimentalParameters: human, 48-h incubation, mean (SD) of 2–3 independent experiments in triplicate, read-out: CC50 (µM) in Hs27 Cells
Note: unit µM is implicit; provide only the numeric part.

Solved cases (3 shown):
{"columns": ["compound", "quantityUnit", "reading"],
 "data": [
  ["CN(C)C(=O)C1=NOC2(C=C(Br)C(=O)C(Br)=C2)C1 [Compound 13]", "µM", 7.2],
  ["COc1ccc(CCNC(=O)C2=NOC3(C=CC(=O)C=C3)C2)cc1 [Compound 25]", "µM", 2],
  ["Cn1nc(-c2ccc(Cl)cc2)cc1NC(=O)C1=NOC2(C=C(Br)C(=O)C(Br)=C2)C1 [Compound 41]", "µM", 1.4]
]}

We next turn to a different compound, shown below.
Q: Tell me the measured CC50 at 48 h of O=C(NCCc1ccccn1)C1=NOC2(C=C(Br)C(=O)C(Br)=C2)C1 [Compound 33] , please.
A: 6.6

----------
# runDescription: Cytotoxicity in Hs27 normal skin fibroblasts (CellTiter-Glo ATP viability)
# Type: cell-based
# experimentalParameters: human, 48-h incubation, mean (SD) of 2–3 independent experiments in triplicate, read-out: CC50 (µM) in Hs27 Cells
Catalogue of CC50 at 48 h readings, one per entry.
Please answer using the number first and the unit second.

Solved cases (3 shown):
{"columns": ["smilesStr", "CC50 at 48 h"],
 "data": [
  ["CC(C)N(C)C(=O)C1=NOC2(C=C(Br)C(=O)C(Br)=C2)C1", "7.8 µM"],
  ["O=C(NCCc1cccnc1)C1=NOC2(C=C(Br)C(=O)C(Br)=C2)C1", "8.8 µM"],
  ["O=C1C=CC2(C=C1)CC(C(=O)NCCc1ccccn1)=NO2", "2.2 µM"]
]}

We next turn to a different compound, shown below.
Q: Tell me the measured CC50 at 48 h of "O=C1C=CC2(C=C1)CC(C(=O)N1CCOCC1)=NO2" , please.
A: 2.5 µM

----------
# runDescription: Cytotoxicity in Hs27 normal skin fibroblasts (CellTiter-Glo ATP viability)
# Format: cell-based
# experimentalParameters: human, 48-h incubation, mean (SD) of 2–3 independent experiments in triplicate, read-out: CC50 (µM) in Hs27 Cells
CC50 at 48 h under 4 µM gets yes, anything at or over 4 µM gets no.

Some solved cases for reference:
{"columns": ["smilesStr", "cat"],
 "data": [
  ["O=C1C=CC2(C=C1)CC(C(=O)NCCc1c[nH]c3ccccc13)=NO2", "yes"],
  ["O=C(NCc1cccnc1)C1=NOC2(C=C(Br)C(=O)C(Br)=C2)C1", "no"],
  ["O=C(NNC(=O)c1ccccn1)C1=NOC2(C=C(Br)C(=O)C(Br)=C2)C1", "no"],
  ["O=C(Nc1ccc(C(F)(F)F)cn1)C1=NOC2(C=C(Br)C(=O)C(Br)=C2)C1", "yes"]
]}

Now look at this one.
Q: Say whether its CC50 at 48 h is strictly beneath 4 µM. Entry: "CN(C)C(=O)C1=NOC2(C=CC(=O)C=C2)C1"
A: yes
